- experimental_details: log P determination by HPLC on reversed-phase column (C 18), EEC directive 79/831 Annex V.A8
- Type: physicochemical
- cond: reversed-phase HPLC column (C 18), pH 2.3, pH 2.3 (marked a), 0.1% aqueous phosphoric acid/acetonitrile, 43° C.
assay_metric: chromatographic logP

{"compound": "CCCCN(CCCC)C(=O)[C@H]1CC(c2c(F)cccc2F)=NC1c1ccc(-c2ccc(OC(F)(F)F)cc2)cc1 (stereo partly shown)", "chromatographic logP": 5.65}
{"compound": "O=C(O)[C@H]1CC(c2c(F)cccc2F)=NC1c1ccc(-c2ccc(OC(F)(F)F)cc2)cc1 (stereo partly shown)", "chromatographic logP": 3.35}
{"compound": "CC(C)(C)NC(=O)[C@H]1CC(c2c(F)cccc2F)=NC1c1ccc(-c2ccc(OC(F)(F)F)cc2)cc1 (stereo partly shown)", "chromatographic logP": 4.23}
{"compound": "CC(OC(=O)[C@H]1CC(c2c(F)cccc2F)=NC1c1ccc(-c2ccc(OC(F)(F)F)cc2)cc1)c1ccccc1 (stereo partly shown)", "chromatographic logP": 5.54}
{"compound": "CC(C)NC(=O)[C@H]1CC(c2c(F)cccc2F)=NC1c1ccc(-c2ccc(OC(F)(F)F)cc2)cc1 (stereo partly shown)", "chromatographic logP": 3.74}

I. CC(C)OC(=O)[C@H]1CC(c2c(F)cccc2F)=NC1c1ccc(-c2ccc(OC(F)(F)F)cc2)cc1 (stereo partly shown)
II. O=C([C@H]1CC(c2c(F)cccc2F)=NC1c1ccc(-c2ccc(OC(F)(F)F)cc2)cc1)N1CCOCC1 (stereo partly shown)
# input Sorting by chromatographic logP in descending order, would I or II appear first? # respond with the chosen item's label
# output I

###

- experimental_details: log P determination by HPLC on reversed-phase column (C 18), EEC directive 79/831 Annex V.A8
- Assay type: physicochemical
- cond: reversed-phase HPLC column (C 18), pH 2.3, pH 2.3 (marked a), 0.1% aqueous phosphoric acid/acetonitrile, 43° C.
assay_metric: chromatographic logP

Look over these answered cases.
{"compound": "O=C(OCCCc1ccccc1)[C@H]1CC(c2c(F)cccc2F)=NC1c1ccc(-c2ccc(OC(F)(F)F)cc2)cc1 (some centres unmarked)", "chromatographic logP": 5.78}
{"compound": "COC(=O)[C@@H](C)COC(=O)[C@H]1CC(c2c(F)cccc2F)=NC1c1ccc(-c2ccc(OC(F)(F)F)cc2)cc1 (some centres unmarked)", "chromatographic logP": 4.67}

A. O=C(OC1CCCCC1)[C@H]1CC(c2c(F)cccc2F)=NC1c1ccc(-c2ccc(OC(F)(F)F)cc2)cc1 (some centres unmarked)
B. O=C(NCc1cccs1)[C@H]1CC(c2c(F)cccc2F)=NC1c1ccc(-c2ccc(OC(F)(F)F)cc2)cc1 (some centres unmarked)
# input When the recorded chromatographic logP values are compared, which is smaller: that of A or that of B ? # respond with the chosen item's label
# output B

###

- experimental_details: log P determination by HPLC on reversed-phase column (C 18), EEC directive 79/831 Annex V.A8
- Type: physicochemical
- cond: reversed-phase HPLC column (C 18), pH 7.5, pH 7.5 (marked b), 0.01-molar aqueous phosphate buffer/acetonitrile, 43° C.
assay_metric: chromatographic logP

{"compound": "CCCCOC(=O)[C@H]1CC(c2c(F)cccc2F)=NC1c1ccc(-c2ccc(OC(F)(F)F)cc2)cc1 (some centres unmarked)", "reported_result": 5.49}
{"compound": "CC(C)[C@@H](C)OC(=O)[C@H]1CC(c2c(F)cccc2F)=NC1c1ccc(-c2ccc(OC(F)(F)F)cc2)cc1 (some centres unmarked)", "reported_result": 5.86}
{"compound": "CC(C)[C@H](C)OC(=O)[C@H]1CC(c2c(F)cccc2F)=NC1c1ccc(-c2ccc(OC(F)(F)F)cc2)cc1 (some centres unmarked)", "reported_result": 5.77}
{"compound": "CCCCCCOC(=O)[C@H]1CC(c2c(F)cccc2F)=NC1c1ccc(-c2ccc(OC(F)(F)F)cc2)cc1 (some centres unmarked)", "reported_result": 6.18}
{"compound": "O=C(OC1CCCC1)[C@H]1CC(c2c(F)cccc2F)=NC1c1ccc(-c2ccc(OC(F)(F)F)cc2)cc1 (some centres unmarked)", "reported_result": 5.54}
{"compound": "O=C(OC1CCCCC1)[C@H]1CC(c2c(F)cccc2F)=NC1c1ccc(-c2ccc(OC(F)(F)F)cc2)cc1 (some centres unmarked)", "reported_result": 5.91}
{"compound": "CC(C)COC(=O)[C@H]1CC(c2c(F)cccc2F)=NC1c1ccc(-c2ccc(OC(F)(F)F)cc2)cc1 (some centres unmarked)", "reported_result": 5.47}
{"compound": "CCC(C)OC(=O)[C@H]1CC(c2c(F)cccc2F)=NC1c1ccc(-c2ccc(OC(F)(F)F)cc2)cc1 (some centres unmarked)", "reported_result": 5.48}

Just for reference, patent US6995185B2 is where these values come from.
